Taken from ChEMBL document CHEMBL1139192.

Please go through the items and note down their residual activity.
Target: Tyrosine-protein kinase Lyn (Mus musculus) (UniProt P25911)
Sequence (P25911 whole entry): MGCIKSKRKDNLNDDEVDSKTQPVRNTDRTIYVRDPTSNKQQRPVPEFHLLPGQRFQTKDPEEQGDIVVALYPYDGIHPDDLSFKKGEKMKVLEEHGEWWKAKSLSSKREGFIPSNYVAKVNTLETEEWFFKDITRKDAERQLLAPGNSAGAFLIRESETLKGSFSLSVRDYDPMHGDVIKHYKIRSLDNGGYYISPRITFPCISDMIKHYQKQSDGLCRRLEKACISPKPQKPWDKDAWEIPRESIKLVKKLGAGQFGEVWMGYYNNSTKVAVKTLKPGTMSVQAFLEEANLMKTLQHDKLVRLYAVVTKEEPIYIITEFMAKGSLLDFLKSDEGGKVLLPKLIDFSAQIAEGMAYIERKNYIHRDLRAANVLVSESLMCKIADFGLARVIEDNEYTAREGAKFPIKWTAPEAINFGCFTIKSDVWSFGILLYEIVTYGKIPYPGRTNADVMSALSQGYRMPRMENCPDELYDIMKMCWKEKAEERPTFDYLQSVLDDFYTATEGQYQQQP
Experiment: Inhibition of mouse Lyn at 1 uM relative to control; values are per cent of control

Provide the reported residual activity of each entry below, same order.
1. CN(C)c1nc2ccc1CCCn1cc(c3ccccc31)C1=C(C(=O)NC1=O)c1cn(c3ccccc13)CC2
2. O=C1NC(=O)C2=C1c1cn(c3ccccc13)CCCc1cc(nc(N3CCCC3)c1)CCCn1cc2c2ccccc21
3. CN(C)c1cc2cc(n1)CCCn1cc(c3ccccc31)C1=C(C(=O)NC1=O)c1cn(c3ccccc13)CCC2
4. O=C1NC(=O)C2=C1c1cn(c3ccccc13)CCCc1ccc(c(N3CCCC3)n1)CCCn1cc2c2ccccc21

1. 90%
2. 99%
3. 102%
4. 104%

---

Molecular target: Glycogen synthase kinase-3 beta (Homo sapiens, UniProt P49841)
Sequence (P49841 whole entry, looked up): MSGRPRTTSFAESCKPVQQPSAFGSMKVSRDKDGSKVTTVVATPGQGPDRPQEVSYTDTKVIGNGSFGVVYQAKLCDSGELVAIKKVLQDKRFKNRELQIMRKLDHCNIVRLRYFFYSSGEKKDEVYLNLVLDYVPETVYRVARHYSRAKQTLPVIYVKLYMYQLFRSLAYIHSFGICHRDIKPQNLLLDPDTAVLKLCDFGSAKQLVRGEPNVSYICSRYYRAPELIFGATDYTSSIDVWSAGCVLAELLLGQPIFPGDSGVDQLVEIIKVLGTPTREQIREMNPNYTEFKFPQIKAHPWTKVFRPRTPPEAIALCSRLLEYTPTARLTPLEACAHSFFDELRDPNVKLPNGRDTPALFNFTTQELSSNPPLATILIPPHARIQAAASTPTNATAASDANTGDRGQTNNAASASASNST
Test: Residual activity of human GSK3-beta at 1 uM relative to control
Please go through the items and note down their residual activity.
Answers are plain numbers, in %.

smiles record | residual activity / %
O=C1NC(=O)C2=C1c1cn(c3ccccc13)CCCc1cc(nc(N3CCCC3)c1)CCCn1cc2c2ccccc21 | 3
CN(C)c1cc2cc(n1)CCCn1cc(c3ccccc31)C1=C(C(=O)NC1=O)c1cn(c3ccccc13)CCC2 | 1
CN(C)c1nc2ccc1CCCn1cc(c3ccccc31)C1=C(C(=O)NC1=O)c1cn(c3ccccc13)CC2 | 1

With those in mind, consider the next compound.
Per the records, this compound ( "O=C1NC(=O)C2=C1c1cn(c3ccccc13)CCCc1ccc(c(N3CCCC3)n1)CCCn1cc2c2ccccc21" ) has residual activity equal to 7

---

Please go through the items and note down their residual activity.
Organism: Homo sapiens
Experiment: Residual activity of human PKBalpha at 1 uM relative to control
Numbers only, in %.

smiles record | unit annotation | residual activity
O=C1NC(=O)C2=C1c1cn(c3ccccc13)CCCc1cc(nc(N3CCCC3)c1)CCCn1cc2c2ccccc21 | % | 112

Provide the reported residual activity of each entry below, same order.
1. CN(C)c1nc2ccc1CCCn1cc(c3ccccc31)C1=C(C(=O)NC1=O)c1cn(c3ccccc13)CC2
2. CN(C)c1cc2cc(n1)CCCn1cc(c3ccccc31)C1=C(C(=O)NC1=O)c1cn(c3ccccc13)CCC2

1. 94
2. 114

Per the records, this molecule ( "O=C1NC(=O)C2=C1c1cn(c3ccccc13)CCCc1ccc(c(N3CCCC3)n1)CCCn1cc2c2ccccc21" ) has residual activity equal to 106

---

Target: Mitogen-activated protein kinase 8 (Homo sapiens)
Test: Inhibition of human JNK1alpha1 at 1 uM relative to control; values are per cent of control
result type: residual activity (%)
Answers are plain numbers, in %.

Consider the reported residual activity for these compounds:
smiles record | residual activity [%]
O=C1NC(=O)C2=C1c1cn(c3ccccc13)CCCc1cc(nc(N3CCCC3)c1)CCCn1cc2c2ccccc21 | 108
O=C1NC(=O)C2=C1c1cn(c3ccccc13)CCCc1ccc(c(N3CCCC3)n1)CCCn1cc2c2ccccc21 | 104
CN(C)c1cc2cc(n1)CCCn1cc(c3ccccc31)C1=C(C(=O)NC1=O)c1cn(c3ccccc13)CCC2 | 105

With those in mind, consider the next compound.
Per the records, this compound ( "CN(C)c1nc2ccc1CCCn1cc(c3ccccc31)C1=C(C(=O)NC1=O)c1cn(c3ccccc13)CC2" ) has residual activity equal to 102
